# Test System: hGLP-1R (Homo sapiens, UniProt P43220)
# Sequence (P43220 24-463): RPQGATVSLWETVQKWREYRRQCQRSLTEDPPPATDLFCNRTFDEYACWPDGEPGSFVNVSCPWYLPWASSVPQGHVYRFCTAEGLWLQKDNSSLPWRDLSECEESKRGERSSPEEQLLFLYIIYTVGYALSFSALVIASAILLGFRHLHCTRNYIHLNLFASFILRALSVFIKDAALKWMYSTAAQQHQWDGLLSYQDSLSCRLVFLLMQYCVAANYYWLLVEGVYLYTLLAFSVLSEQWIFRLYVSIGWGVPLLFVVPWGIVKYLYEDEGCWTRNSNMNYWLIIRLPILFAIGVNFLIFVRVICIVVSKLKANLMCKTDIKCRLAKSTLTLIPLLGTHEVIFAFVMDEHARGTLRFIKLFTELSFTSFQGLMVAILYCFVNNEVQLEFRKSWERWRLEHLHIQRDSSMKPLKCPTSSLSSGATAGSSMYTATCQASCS
# Assay Remarks: Functional cAMP activity in the presence of 1% HSA
# Format: cell-based
# Protocol Conditions: read-out: cAMP Rel EC50, hGLP-1R
Starred links: 1 amine or outer side, 2 acyl side, 3 side chain; linkers in the order of their positions; H or OH if unused. Non-standard residues stand in square brackets, D forms with d. Groups on a side chain read outwards from the residue. No end group written: not given here. *: point of attachment. C18 diacid = O=C(O)CCCCCCCCCCCCCCCCC(=O)*; Phe(4-CN) = N#Cc1ccc(C[C@H](N)C(=O)O)cc1; αMePhe(2-F) = C[C@](N)(Cc1ccccc1F)C(=O)O; γGlu = O=C(O)[C@H](CCC(=O)[*:2])N[*:1]; αMe4Pal = C[C@](N)(Cc1ccncc1)C(=O)O; αMeY = C[C@](N)(Cc1ccc(O)cc1)C(=O)O; 4Pal = N[C@@H](Cc1ccncc1)C(=O)O; αMeL = CC(C)C[C@](C)(N)C(=O)O; αMeS = C[C@](N)(CO)C(=O)O; Orn = NCCC[C@H](N)C(=O)O; AEEA = NCCOCCOCC(=O)O; Aib = CC(C)(N)C(=O)O
Quantity Name: pEC50
# log scale: pEC50 equals minus log10 of the concentration in mol/L

Q: Return reported pEC50; argument: H-Y[Aib]QGTFTSD[Phe(4-CN)]S[Orn][αMeL]LDKK([AEEA-AEEA-γGlu-C18 diacid])AQ[Aib]AFIEYLLE[Aib]GPSSGAPPPSGS-NH2 [Example 178]
Ans: 6.40

Q: Return reported pEC50; argument: H-Y[Aib]QGTFTSDFS[Orn][αMeL]LDKK([γGlu-AEEA-γGlu-C18 diacid])AQ[Aib]AFIEYLLE[Aib]GPSSGAPPPSG[4Pal]-NH2 [Example 277]
Ans: 6.19

Q: Return reported pEC50; argument: Y[Aib]QGT[αMePhe(2-F)]TSD[4Pal][αMeS]I[αMeL]LD[Orn]K([γGlu-γGlu-C18 diacid])AQ[αMe4Pal]EFI[dE][αMeY]LVEGGPSSGAPPPSGSE-NH2 [Example 1162]
Ans: 7.46

Q: Return reported pEC50; argument: H-Y[Aib]QGT[αMePhe(2-F)]TSD[4Pal][αMeS]I[αMeL]LD[Orn]K([γGlu-γGlu-C18 diacid])AQ[Aib][Orn]FI[dE]YLIEGGPSSGEPPPSGTGE-NH2 [Example 523]
Ans: 7.57

Q: Return reported pEC50; argument: H-Y[Aib]QGTFTSD[4Pal]SQ[αMeL]LDKK([γGlu-γGlu-C18 diacid])AQ[αMe4Pal]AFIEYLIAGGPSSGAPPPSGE-NH2 [Example 883]
Ans: 6.92
